- System: Rattus norvegicus
- run_description: Half life in rat at 1 mg/kg, iv
- Type: ADME, organism-based
- Design: dose 1 mg/kg, route intravenous
- assay_conditions: in vivo
attribute_measured: t1/2 (h)
Report as a plain number; the unit h is understood.

- input_smiles: "COc1cc(N2CCC(N3CCOCC3)CC2)ccc1-c1nc2c(N[C@H]3[C@@H](C(N)=O)[C@@H]4C=C[C@H]3C4)c(Cl)cnc2[nH]1"
  measured_result: 1.9

Data request: Which t1/2 is reported for this molecule? COc1cc(CN2CCOCC2)ccc1-c1nc2c(N[C@H]3[C@@H](C(N)=O)[C@@H]4C=C[C@H]3C4)c(Cl)cnc2[nH]1
Data returned: 1.6

Data request: Lookup COc1cc(CN2CCN(C)CC2)ccc1-c1nc2c(N[C@H]3[C@@H](C(N)=O)[C@@H]4C=C[C@H]3C4)c(Cl)cnc2[nH]1
Data returned: 1.1

Data request: Lookup COc1cc(N2CCN(C)CC2)ccc1-c1nc2c(N[C@H]3[C@@H](C(N)=O)[C@@H]4C=C[C@H]3C4)c(Cl)cnc2[nH]1
Data returned: 1.4

Data request: Lookup COc1cc(N2CCC(N3CCN(C)CC3)CC2)ccc1-c1nc2c(N[C@H]3[C@@H](C(N)=O)[C@@H]4C=C[C@H]3C4)c(Cl)cnc2[nH]1
Data returned: 2.5

Data request: Lookup COc1cc(N2CCOCC2)ccc1-c1nc2c(N[C@H]3[C@@H](C(N)=O)[C@@H]4C=C[C@H]3C4)c(Cl)cnc2[nH]1
Data returned: 1.4

====

- run_description: AUC (0 to infinity) in rat at 5 mg/kg, po
- Format: ADME, organism-based, Plasma
- Set-up: dose 5 mg/kg, route oral, time infinity
- assay_conditions: plasma
attribute_measured: AUC(0-inf) (ng·h/mL)
Report as a plain number; the unit ng·h/mL is understood.

See these solved cases before continuing.
- input_smiles: "COc1cc(N2CCN(C)CC2)ccc1-c1nc2c(N[C@H]3[C@@H](C(N)=O)[C@@H]4C=C[C@H]3C4)c(Cl)cnc2[nH]1"
  measured_result: 148
- input_smiles: "COc1cc(N2CCC(N3CCOCC3)CC2)ccc1-c1nc2c(N[C@H]3[C@@H](C(N)=O)[C@@H]4C=C[C@H]3C4)c(Cl)cnc2[nH]1"
  measured_result: 740
- input_smiles: "COc1cc(CN2CCOCC2)ccc1-c1nc2c(N[C@H]3[C@@H](C(N)=O)[C@@H]4C=C[C@H]3C4)c(Cl)cnc2[nH]1"
  measured_result: 1730

Turning now to a further record.
Data request: Which AUC(0-inf) is reported for this compound? COc1cc(N2CCOCC2)ccc1-c1nc2c(N[C@H]3[C@@H](C(N)=O)[C@@H]4C=C[C@H]3C4)c(Cl)cnc2[nH]1
Data returned: 2580

====

- study_target: Voltage-gated inwardly rectifying potassium channel KCNH2 (Homo sapiens, UniProt Q12809)
- Sequence (Q12809 whole entry): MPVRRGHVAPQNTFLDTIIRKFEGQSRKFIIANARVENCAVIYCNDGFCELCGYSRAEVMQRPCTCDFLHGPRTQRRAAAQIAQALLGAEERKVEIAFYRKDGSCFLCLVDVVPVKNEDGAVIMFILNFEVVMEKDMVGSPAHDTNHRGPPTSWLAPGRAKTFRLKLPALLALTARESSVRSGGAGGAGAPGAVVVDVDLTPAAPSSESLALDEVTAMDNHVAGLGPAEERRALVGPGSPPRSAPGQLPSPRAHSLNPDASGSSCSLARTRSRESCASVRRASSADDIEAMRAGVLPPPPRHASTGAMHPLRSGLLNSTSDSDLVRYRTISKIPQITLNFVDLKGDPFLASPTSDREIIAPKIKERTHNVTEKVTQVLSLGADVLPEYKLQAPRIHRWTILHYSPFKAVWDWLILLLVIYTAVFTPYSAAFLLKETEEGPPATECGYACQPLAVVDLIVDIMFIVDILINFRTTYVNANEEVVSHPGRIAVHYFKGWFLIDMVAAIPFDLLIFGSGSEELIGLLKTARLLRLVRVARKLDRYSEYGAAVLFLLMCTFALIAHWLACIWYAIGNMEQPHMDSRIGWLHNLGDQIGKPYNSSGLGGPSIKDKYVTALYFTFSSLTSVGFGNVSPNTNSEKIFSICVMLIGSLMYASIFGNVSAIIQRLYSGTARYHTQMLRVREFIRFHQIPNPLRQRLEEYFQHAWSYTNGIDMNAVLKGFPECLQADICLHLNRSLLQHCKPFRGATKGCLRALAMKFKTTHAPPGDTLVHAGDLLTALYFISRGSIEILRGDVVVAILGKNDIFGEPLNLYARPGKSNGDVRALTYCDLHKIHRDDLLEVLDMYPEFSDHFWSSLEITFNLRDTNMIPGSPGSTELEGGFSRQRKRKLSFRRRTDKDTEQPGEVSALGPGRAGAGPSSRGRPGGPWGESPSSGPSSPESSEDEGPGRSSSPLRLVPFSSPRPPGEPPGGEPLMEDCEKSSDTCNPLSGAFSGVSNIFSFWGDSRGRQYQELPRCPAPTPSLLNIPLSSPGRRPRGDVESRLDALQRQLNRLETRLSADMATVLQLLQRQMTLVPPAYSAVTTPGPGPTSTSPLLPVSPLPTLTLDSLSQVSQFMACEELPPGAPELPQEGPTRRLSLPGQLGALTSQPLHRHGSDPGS
- run_description: Inhibition of human ERG by automated patch-clamp assay
pIC50: −log10 of the molar value.
attribute_measured: pIC50

Data request: Which measured pIC50 belongs to COc1cc(N2CCN(C)CC2)ccc1-c1nc2c(N[C@H]3[C@@H](C(N)=O)[C@@H]4C=C[C@H]3C4)c(Cl)cnc2[nH]1 , tested on Voltage-gated inwardly rectifying potassium channel KCNH2 (Homo sapiens, UniProt Q12809)?
Data returned: < 5.00
